B1: C9orf9 (parent)
chain: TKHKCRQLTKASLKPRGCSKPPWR

Variants of: B1
Test: protein stability index of a GFP-peptide fusion (GPS, HEK-293T) (PSI 1-6); higher = more stable;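 note: lentivirally expressed fusions sorted by FACS into six bins by GFP to DsRed ratio, PSI derived from sequencing read proportions per bin multiplied by bin number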
Conditions: c terminus: a fixed tail appended
Below, each entry is listed alongside its reported protein stability index.
The answer should be written as a number, with no unit following it.

Answered cases to consult:
// query Dear colleague, I am looking for the recorded protein stability index of the following variant: `P15F`
// result 2.77

// query GET /values?readout=protein stability index&item= `G17L`
// result 2.14

// query Item `S12T` has what recorded protein stability index?
// result 2.6

// query What does the data say about its protein stability index? Entry: `R16E`
// result 2.33

// query Reported protein stability index, variant `R24H` : ____
// result 2.82

// query Return reported protein stability index; argument: `T9Y`
// result 3.38

---
// query Query: protein stability index; subject: `L13H`
// result 2.88

// query Recorded protein stability index for `P22Q` , please?
// result 2.99

// query Bench note: what protein stability index did `L8I` show?
// result 2.37
